Source: patent US20220162215A1

Assay Explanation: In vivo pharmacokinetic properties (Table 7)
Experimental Parameters: mouse, in vivo; IV (1 mg/kg)
Measured Parameter: AUC(0-inf) (µM·h)
Field format: number, assumed µM·h, no unit text.

Value lookup for AUC(0-inf); key = FC(F)(F)c1cc2c(NC3CCCc4ccccc43)ncnc2[nH]1 (stereo not shown) 1.5

----------
System: HeLa MKYP cells
Assay Explanation: Toxicity / cell death measured by DAPI staining (take-up)
Assay type: cell-based
Experimental Parameters: Table 3 Supplement A; 50 μM
List of Toxicity (% positive for DAPI take-up at 50 μM)* values.
Entry format: amount then unit.

Use the examples below as a reference point.
INSERT INTO measurements (compound, tgt, result) VALUES
  ('OC[C@H](Nc1ncnc2[nH]cnc12)c1ccccc1', 'HeLa MKYP cells', '14.49%'),
  ('OC[C@H](Nc1ncnc2[nH]c(C(F)(F)F)cc12)c1ccccc1', 'HeLa MKYP cells', '30.45%'),
  ('FC(F)(F)c1cc2c(NC3CCN(Cc4ccccc4)CC3)ncnc2[nH]1', 'HeLa MKYP cells', '43.86%');

Value lookup for Toxicity (% positive for DAPI take-up at 50 μM)*; key = CC(Nc1ncnc2[nH]cnc12)c1ccccc1 (stereo not shown) 22.24%

Subsequent entry: `c1ccc(C2(Nc3ncnc4[nH]cnc34)CC2)cc1` 13.38%

Subsequent entry: `C[C@@H](Nc1nccc2[nH]cnc12)c1ccccc1` 7.63%

Subsequent entry: CC(Nc1ncnc2[nH]c(C3CC3)nc12)c1ccccc1 (stereo not shown) 18.26%

----------
System: HeLa MKYP cells
Assay Explanation: Toxicity / cell death measured by DAPI staining (take-up)
Type: cell-based
Experimental Parameters: human, 50 μM
List of Toxicity (% positive for DAPI takeup @ 50 μM) values.
Field format: number, assumed %, no unit text.

Use the examples below as a reference point.
INSERT INTO measurements (compound, quantitative_result) VALUES
  ('C[C@@H](Nc1ncnc2[nH]c(C(F)(F)F)cc12)c1cncnc1 [Compound 70]', 22.9),
  ('FC(F)(F)c1cc2c(NCc3cncnc3)ncnc2[nH]1 [Compound 19]', 1.7),
  ('c1ncc(CNc2ncnc3[nH]cnc23)cn1 [Compound 67]', 5.3),
  ('c1ncc(CNc2ncnc3[nH]c(C4CC4)nc23)cn1 [Compound 36]', 7.1),
  ('FC(F)(F)c1cc2c(NCc3cncnc3)ncnc2[nH]1 [Compound 49]', 23.0);

Value lookup for Toxicity (% positive for DAPI takeup @ 50 μM); key = C[C@H](Nc1ncnc2[nH]c(C(F)(F)F)cc12)c1cncnc1 [Compound 44] 23.7

----------
Assay Explanation: Solubility in 1× PBS
Format: physicochemical
List of solubility values.
Field format: number, assumed µM, no unit text.

Value lookup for solubility; key = `CO[C@@H]1COc2ccccc2[C@H]1Nc1ncnc2[nH]c(C(F)(F)F)cc12` 16.4

Subsequent entry: `OC[C@H]1CCc2ccccc2[C@@H]1Nc1ncnc2[nH]c(C(F)(F)F)cc12` 9.07

Subsequent entry: `CO[C@H]1COc2ccccc2[C@@H]1Nc1ncnc2[nH]c(C(F)(F)F)cc12` 16.3

Subsequent entry: OC1CCc2ccccc2C1Nc1ncnc2[nH]c(C(F)(F)F)cc12 (centres unmarked) 1

Subsequent entry: COc1ccc2c(c1)[C@@H](Nc1ncnc3[nH]c(C(F)(F)F)cc13)CCC2 [Compound 87] 1.2
